# System: oat, wild (wild oat, Avena fatua)
# METHOD: Test C greenhouse herbicide test, postemergence
# Type: in vivo
# PROTOCOL CONDITIONS: Postemergence, 125 g ai/ha; scale 0 to 100, 0 is no effect, 100 is complete control
Response field label takes MET when Plant response rating, Oat, Wild is strictly below 90 and NOT MET in all other cases.

Cc1nn(C)c(=O)c(-c2c(C)sc3ccccc23)c1O : MET
COc1ccc2ccccc2c1-c1c(O)c(C)nn(C)c1=O : MET
Cc1ccc(-c2c(O)c(Br)nn(C)c2=O)c2ccccc12 : MET
Cc1sc2ccc(Cl)cc2c1-c1c(OS(C)(=O)=O)c(Cl)nn(C)c1=O : MET
C#CCOC(=O)Oc1c(C)nn(C)c(=O)c1-c1c(C)sc2ccc(C)cc12 : MET

Would you kindly verify if Plant response rating, Oat, Wild of "CC(=O)Oc1c(C)nn(C)c(=O)c1-c1c(C)sc2c(C)cc(C)cc12" is strictly less than 90? NOT MET

Determine whether this molecule shows Plant response rating, Oat, Wild lower than 90 (ties excluded): "COC(=O)Oc1c(C)nn(C)c(=O)c1-c1c(C)sc2c(C)cc(C)cc12" NOT MET

Please determine if "CC(=O)Oc1c(C#N)nn(C)c(=O)c1-c1c(C)ccc2ccccc12" is below 90 in terms of Plant response rating, Oat, Wild. NOT MET
